# Test system: MDA-MB-231 breast
# ASSAY INFO: NCI-60 one-dose screen, 48 h (100 = growth as untreated, 0 = no growth, -100 = all killed)
# ASSAY CONDITIONS: 10 µM unless noted
The panel holds about 83,000 compounds, 20% with a hit somewhere; the sample as a whole holds those more often.
PARAMETER: growth (%)
Record the value in %, omitting the unit from your answer.

Quick one: growth for Nc1cc(-c2c[nH]c3ccc(Br)cc23)nc2cc(-c3c[nH]c4ccc(Br)cc34)nn12 ?
7.95

Quick one: growth for O=S(=O)(NCCNc1nccc(-n2cnc3ccccc32)n1)c1ccc(C(F)(F)F)cc1 ?
64

Quick one: growth for COc1cc2nc(Cl)nc(Nc3cccc(C4=Nc5c(N)nc(N)nc5NC(c5ccc(Cl)cc5)C4)c3)c2cc1OC (centres undefined) ?
72.9

Quick one: growth for O=C(CSc1nnc(-c2ccc(Cl)cc2)n1-c1ccccc1)Nc1ccc(Br)cc1 ?
-29.8

Quick one: growth for CCOc1ccccc1NC1=C(Cl)C(=O)c2nc(C)ccc2C1=O ?
-63.6

----------
# Test system: CCRF-CEM leukemia
# ASSAY INFO: NCI-60 one-dose screen, 48 h
# ASSAY CONDITIONS: 10 µM unless noted
This is part of a sample that, as a whole, favours compounds with a hit. Of some 83,000 tested, about 20% had one in any assay. Calls of active or inactive are those of the source. Rule for the calls: active = growth percent below 10; inactive = the rest.
# valid calls are true for active, false for inactive; nothing else

[[record]]
compound = "NC(N)=Nc1ccc(Oc2cccc(Nc3ccc(Cl)cc3)c2)cn1"
classification = "true"

[[record]]
compound = "COc1ccccc1NC1=C(Cl)C(=O)c2nc(C)ccc2C1=O"
classification = "true"

[[record]]
compound = "COc1ccccc1-n1cc(C#N)c(N)c1C(=O)c1ccc(Br)cc1"
classification = "false"

[[record]]
compound = "CC/C(=C/c1c(O)cccc1OC)c1ccc2c(OC)cccc2[o+]1"
classification = "false"

[[record]]
compound = "CCCCc1nc(/C=N/Nc2nc(Nc3ccccc3)nc(Nc3ccc(S(N)(=O)=O)cc3)n2)c(Cl)[nH]1"
classification = "false"

[[record]]
compound = "NC(=O)c1cccc(-n2ccc3cc(NC(=O)Nc4ccc(N5CCOCC5)c(C(F)(F)F)c4)ccc32)n1"
classification = "true"

[[record]]
compound = "O=S(=O)(NCCNc1nccc(-n2cnc3ccccc32)n1)c1ccc(Cl)cc1"
classification = "false"

[[record]]
compound = "NC/C(=C/F)COc1ccc2nc(NCc3cccnc3)oc2c1"
classification = "false"


Status in this test for CC1(C)[C@@H](O)CC[C@]2(C)[C@H]3CC[C@@H]4[C@H]5[C@H](C(=O)/C=C\c6ccc([N+](=O)[O-])cc6)CC[C@]5(O)CC[C@@]4(C)[C@]3(C)CC[C@@H]12 ?
false

Status in this test for O=C(NCCn1ccnc1)c1ccc(-c2nc3ccc4[nH]ncc4c3c3c2CCCC3)cc1 ?
false

Status in this test for CCCSc1nc(Nc2ccc(/C(C)=N\NC(N)=S)cc2)c(C#N)c(-c2ccccc2)n1 ?
false

Status in this test for O=C(CSc1nc2ccccc2c(=O)n1-c1ccc(Cl)cc1)N/N=C/c1ccc(N2CCCCC2)cc1 ?
false

----------
# Tested on: UACC-62 melanoma
# ASSAY INFO: NCI-60 one-dose screen, 48 h (100 = growth as untreated, 0 = no growth, -100 = all killed)
# ASSAY CONDITIONS: 10 µM unless noted
Compounds without any hit were thinned out: in the full panel of roughly 83,000, 20% have a hit.
Threshold rule: growth greater than or equal to 30% is 1; below that, 0.

Worked cases, answers included:
[[record]]
molecule = "Cn1ccnc1C(=O)/C=C/c1ccc(NC(=O)c2ccc(F)cc2)cc1"
classification = 1

[[record]]
molecule = "Cn1cc(-c2nnc(N)nc2-c2c[nH]c3ccc(F)cc23)c2cc(F)ccc21"
classification = 1

[[record]]
molecule = "C[C@@H]1C[C@H]2C(=O)O[C@@H](C)C(NC(=O)[C@H](Cc3cc(F)cc(F)c3)NC(=O)Nc3ccc(C4CC4)cc3F)C(=O)N3CCC[C@H]3C(=O)N3CCCC[C@H]3C(=O)N[C@@H](CO)C(=O)N2C1 (stereo partly drawn)"
classification = 0


Item Cc1nc(-c2ccccc2O)ccc1C(=O)N=Nc1c(O)[nH]c2ccc(Br)cc12 with growth of 30% or above?
1

Item CCO/C=N/C1=C(C#N)C(c2ccc(Cl)cc2)c2sc3c(CC)cccc3c2O1 (stereo not drawn) with growth of 30% or above?
0

Item O=S(=O)(NCCCNc1nccc(-c2[nH]c(-c3ccccc3)nc2-c2ccc(Cl)c(O)c2)n1)c1cccc(F)c1 with growth of 30% or above?
0

Item Cn1ccnc1C(=O)/C=C/c1ccc(CNC(=O)c2ccc(F)cc2)cc1 with growth of 30% or above?
1

----------
# System: TK-10 renal
# ASSAY INFO: NCI-60 one-dose screen, 48 h (100 = growth as untreated, 0 = no growth, -100 = all killed)
# ASSAY CONDITIONS: 10 µM unless noted
Compounds without any hit were thinned out: in the full panel of roughly 83,000, 20% have a hit.
PARAMETER: growth (%)
Record the value in %, omitting the unit from your answer.

The cases that follow already have their growth on record.
[[record]]
compound = "O=S(=O)(NCCCNc1nccc(-c2[nH]c(-c3ccccc3)nc2-c2ccc(Cl)c(O)c2)n1)c1ccc(Br)cc1"
unit_abbrev = "%"
obs_value = 66.6

[[record]]
compound = "CCNC(=O)N1CCc2cc(OC)c(OCCc3ccc(OC)c(N)c3)cc2C1c1cc(C)c(C)cc1C (centres undefined)"
unit_abbrev = "%"
obs_value = 68

[[record]]
compound = "CCOC(=O)c1c(Nc2ccccc2)nn2c(-c3ccccc3)ccnc12"
unit_abbrev = "%"
obs_value = 111

[[record]]
compound = "CCCn1cnc2c(c1=N)C(c1ccc(F)cc1)c1sc3c(C)cccc3c1O2 (centres undefined)"
unit_abbrev = "%"
obs_value = 70.9


Quick one: growth for Cc1ccc(-c2nnc(SCc3ccc(O)c4ncccc34)o2)cc1 ?
24.3

Quick one: growth for C#C[C@]1(O)CC[C@H]2[C@@H]3CC=C4c5sc(-c6ccc(C)cc6)nc5CC[C@]4(C)[C@H]3CC[C@@]21C ?
77.4

Quick one: growth for COc1ccc(N2C(=O)c3cc(Cl)ccc3NC2SCc2ccccc2)cc1 (centres undefined) ?
96.2

Quick one: growth for COc1cccc(/C=C(/C)c2ccc3cccc(OC)c3[o+]2)c1O ?
116

Quick one: growth for COc1ccc2c(c1)c(CC(=O)[Se]CC#N)c(C)n2C(=O)c1ccc(Cl)cc1 ?
-5.49

----------
We begin with a simple list: items and their reported growth.
# Test system: EKVX NSCLC
# ASSAY INFO: NCI-60 one-dose screen, 48 h (100 = growth as untreated, 0 = no growth, -100 = all killed)
# ASSAY CONDITIONS: 10 µM unless noted
The panel holds about 83,000 compounds, 20% with a hit somewhere; the sample as a whole holds those more often. Active and inactive are the calls of the source. How the source made its calls: active means growth percent below 10; inactive means the rest.

The cases that follow already have their growth on record.
[[record]]
compound = "CCc1ccc(SC2c3ccc(N(CC)CC)cc3Oc3nc(N)c(C#N)c(N)c32)cc1 (configuration not stated)"
obs_value = "-54.8% (active)"

[[record]]
compound = "CC(=O)c1ccc(Nc2nc(SCC(C)C)nc(-c3ccc(F)cc3)c2C#N)cc1"
obs_value = "114% (inactive)"

[[record]]
compound = "COc1ccc(NC2=C(Cl)C(=O)c3nc(C)ccc3C2=O)cc1OC"
obs_value = "50.8% (inactive)"

[[record]]
compound = "CC1(C)CC[C@]2(CN)CC[C@]3(C)C(=CC[C@@H]4[C@@]5(C)CCCNC(C)(C)[C@@H]5CC[C@]43C)[C@H]2C1"
obs_value = "96% (inactive)"

[[record]]
compound = "C#C[C@]1(O)CC[C@H]2[C@@H]3CC=C4c5sc(-c6ccc(C)cc6)nc5CC[C@]4(C)[C@H]3CC[C@@]21C"
obs_value = "54% (inactive)"


Quick one: growth for O=C(NNc1nc2cc(F)ccc2n2cccc12)c1ccncn1 ?
11.2% (inactive)

Quick one: growth for C[C@@H](Nc1c(C#N)cnc2ccc(-c3cnc(Cl)c(NS(C)(=O)=O)c3)cc12)c1ccccc1 ?
-9.44% (active)

Quick one: growth for COc1cccc(C(=O)Nc2cccc(C#Cc3cccc4[nH]nc(N)c34)c2)c1 ?
80.9% (inactive)

Quick one: growth for N#Cc1c(-c2cccs2)cc(-c2cnccn2)nc1SCC(=O)Nc1ccc(Br)cc1 ?
57.6% (inactive)

Quick one: growth for CCCCCCCn1cc2c(N[C@H](C)c3ccccc3)ncnc2n1 ?
88.2% (inactive)

Quick one: growth for Cc1nc2ncc(-c3ccc4ncnc(NCc5ccccc5)c4c3)cc2[nH]1 ?
25.3% (inactive)

Quick one: growth for NC(N)=Nc1ccc(Oc2cccc(NC(N)=Nc3ccc(Cl)c(C(F)(F)F)c3)c2)cn1 ?
65.5% (inactive)

Quick one: growth for CNC(=O)c1cc(Oc2ccc3nc(NC(=O)c4cccc(OC(F)(F)F)c4)sc3c2)ccn1 ?
79.6% (inactive)
